Values from patent US20230381142A1

Recorded CC50, one value per entry.
assay: GSK inMac assay, host cell toxicity readout (LD MAC); format: cell-based, human; settings: human; footnote c; read-out: THP-1 Host Cell CC50
Experimental readout: CC50 (µM)

molecule="CC(C)Cc1n[nH]c2c1C(c1cccc(Cl)c1)N(c1ccc3c(c1)OCO3)C2=O (centres unmarked)" experimental_readout=CC50 qualifying_sign== value=20
molecule="COc1ccc(N2C(=O)c3[nH]nc(CC(C)C)c3C2c2ccnnc2)cc1 (centres unmarked)" experimental_readout=CC50 qualifying_sign=> value=50
molecule="COc1ccc(N2C(=O)c3[nH]nc(CC(C)C)c3C2c2ccccc2Cl)cn1 (centres unmarked)" experimental_readout=CC50 qualifying_sign== value=9.9
molecule="COc1ccc(N2C(=O)c3[nH]nc(CCC=C(C)C)c3C2c2ccc(F)cc2)cc1 (centres unmarked)" experimental_readout=CC50 qualifying_sign== value=20
molecule="COc1ccc(N2C(=O)c3[nH]nc(CC(C)C)c3C2c2ccc(F)cc2F)cc1 (centres unmarked)" experimental_readout=CC50 qualifying_sign== value=25.1
molecule="CC(C)Cc1n[nH]c2c1C(c1ccc(F)cc1)N(c1ccc3c(c1)OC(F)(F)O3)C2=O (centres unmarked)" experimental_readout=CC50 qualifying_sign== value=12.6
molecule="CC(C)Cc1n[nH]c2c1C(c1cccc(C(F)(F)F)c1)N(c1ccc3ncnn3c1)C2=O (centres unmarked)" experimental_readout=CC50 qualifying_sign=≥ value=50.1
molecule="COc1ccc(N2C(=O)c3[nH]nc(CC(C)C)c3C2c2cccc(F)c2)cc1 (centres unmarked)" experimental_readout=CC50 qualifying_sign== value=12.6

---

test system: L. donovani intracellular amastigotes in B10R cells; assay: UCSD L. donovani infection assay (Assay Conditions D); format: cell-based; conditions: B10R cells
Experimental readout: L. donovani amastigotes EC75 (μM, B10R cells)

compound="Cc1cc(Br)cnc1N1C(=O)c2[nH]nc(CC(C)C)c2C1c1ccc(F)cc1 (stereo not drawn)" value=">10 µM"
compound="CC(C)Cc1n[nH]c2c1C(c1ccc(F)cc1Br)N(c1ccn(C)n1)C2=O (stereo not drawn)" value=">10 µM"
compound="CC(C)Cc1n[nH]c2c1C(c1ccc(F)c(F)c1)N(c1cncc(F)c1)C2=O (stereo not drawn)" value=">5 µM"
compound="CC(C)Cc1n[nH]c2c1C(c1ccc(F)cc1Cl)N(c1ccc(N3CCN(C)CC3)nc1)C2=O (stereo not drawn)" value="1.0 µM"
compound=COc1ccc(N2C(=O)c3[nH]nc(CC(C)C)c3[C@H]2c2ccccc2Br)cn1 value="1.0 µM"
compound="CC(C)Cc1n[nH]c2c1C(c1ccc(Cl)cc1Cl)N(c1ccc(N3CCN(C)CC3)nc1)C2=O (stereo not drawn)" value=">10 µM"
compound="COc1ccc(N2C(=O)c3[nH]nc(CC(C)C)c3C2c2ccc(C)s2)cc1 (stereo not drawn)" value="2.5 µM"
compound="Cc1ccccc1C1c2c(CC(C)C)n[nH]c2C(=O)N1c1ccc(N2CCN(C)CC2)nc1 (stereo not drawn)" value="5.0 µM"
compound="Cc1cc(F)ccc1C1c2c(CC(C)C)n[nH]c2C(=O)N1c1ccc(N2CCN(C)CC2)nc1 (stereo not drawn)" value="1.0 µM"
compound="COc1ccc(N2C(=O)c3[nH]nc(CC(C)C)c3C2c2ccccc2C(F)(F)F)cn1 (stereo not drawn)" value=">10 µM"
compound="C#CCCOc1ccc(C2c3c(CC(C)C)n[nH]c3C(=O)N2c2ccc(OC)cc2)c(Cl)c1 (stereo not drawn)" value=">10 µM"
compound="CC(C)Cc1n[nH]c2c1C(c1ccc(F)cc1F)N(c1cncc(F)c1)C2=O (stereo not drawn)" value="2.3 µM"
compound="CC(C)Cc1n[nH]c2c1C(c1ccc(F)cc1Br)N(c1ccc(F)nc1)C2=O (stereo not drawn)" value=">10 µM"
compound="Cc1cc(F)ccc1C1c2c(CC(C)C)n[nH]c2C(=O)N1c1ccc(C(=O)N2CCCC2)cc1 (stereo not drawn)" value=">10 µM"
compound="CC(C)Cc1n[nH]c2c1C(c1ccccc1F)N(c1ccc(C(=O)N3CCCC3)cc1)C2=O (stereo not drawn)" value=">10 µM"
compound="CCc1ccc(C2c3c(CC(C)C)n[nH]c3C(=O)N2c2ccc(F)c(OC)c2)cn1 (stereo not drawn)" value=">10 µM"
compound="CCn1cc(N2C(=O)c3[nH]nc(CC(C)C)c3C2c2ccc(F)cc2Cl)cn1 (stereo not drawn)" value=">10 µM"
compound="Cc1cccnc1N1C(=O)c2[nH]nc(CC(C)C)c2C1c1ccc(F)cc1 (stereo not drawn)" value=">10 µM"
compound="COc1cc(N2C(=O)c3[nH]nc(CC(C)C)c3C2c2cncc(Br)c2)ccn1 (stereo not drawn)" value=">10 µM"
compound="CC(C)Cc1n[nH]c2c1C(c1ccc(F)cc1Cl)N(c1ccn(C)n1)C2=O (stereo not drawn)" value=">10 µM"
compound="Cc1ccccc1C1c2c(CC(C)C)n[nH]c2C(=O)N1c1cnn(C(C)C)c1 (stereo not drawn)" value=">10 µM"
compound="Cc1cc(N2C(=O)c3[nH]nc(CC(C)C)c3C2c2ccc(Br)cc2)n(C)n1 (stereo not drawn)" value=">10 µM"
compound="Cc1ccsc1C1c2c(CC(C)C)n[nH]c2C(=O)N1c1ccn(C)n1 (stereo not drawn)" value=">10 µM"
compound="CC(C)Cc1n[nH]c2c1C(c1ccccc1Cl)N(c1ccc(N3CCN(C)CC3)nc1)C2=O (stereo not drawn)" value="5.1 µM"
compound="CC(C)Cc1n[nH]c2c1C(c1ccc(F)c(F)c1)N(c1ccc(N3CCN(C)CC3)nc1)C2=O (stereo not drawn)" value=">10 µM"
compound="COc1ccc(N2C(=O)c3[nH]nc(CC(C)C)c3C2c2ccc(Br)cc2OC)cn1 (stereo not drawn)" value=">10 µM"
compound="CC(C)Cc1n[nH]c2c1C(c1c(Cl)cccc1Cl)N(c1ccc(N(C)C)cc1)C2=O (stereo not drawn)" value="3.0 µM"
compound="COc1ccc(OC)c(N2C(=O)c3[nH]nc(CC(C)C)c3C2c2cncc(Br)c2)c1 (stereo not drawn)" value=">10 µM"
compound="COc1ncccc1C1c2c(CC(C)C)n[nH]c2C(=O)N1c1ncccc1C (stereo not drawn)" value=">10 µM"
compound="Cc1cc(N2C(=O)c3[nH]nc(CC(C)C)c3C2c2ccc(F)cc2)n(C)n1 (stereo not drawn)" value=">10 µM"
compound="COc1ccc(N2C(=O)c3[nH]nc(CC(C)C)c3C2c2ccc(F)c(F)c2)cn1 (stereo not drawn)" value=">10 µM"
compound="Cc1cc(N2C(=O)c3[nH]nc(CC(C)C)c3C2c2ccc(F)cc2Br)ccn1 (stereo not drawn)" value="1.2 µM"
compound="CCn1cc(N2C(=O)c3[nH]nc(CC(C)C)c3C2c2ccccc2Cl)cn1 (stereo not drawn)" value="5.8 µM"

---

experiment: Artificial membrane permeability (AMP); assay type: in vitro ADME; settings: PAMPA, pH 7.4
Experimental readout: Papp at 3 h (×10⁻⁶ cm/s)

molecule="COc1ccc(N2C(=O)c3[nH]nc(CC(C)C)c3C2c2ccc(F)c(C)n2)cc1 (stereo not shown)" value=38
molecule="COc1ccc(N2C(=O)c3[nH]nc(CC(C)C)c3C2c2cncs2)cc1 (stereo not shown)" value=32
molecule="C=CCCc1n[nH]c2c1C(c1ccc(F)cc1)N(c1ccc(OC)cc1)C2=O (stereo not shown)" value=41
molecule="CC(C)Cc1n[nH]c2c1C(c1ccc(F)cc1)N(c1ccc(C(C)(C)C)cc1)C2=O (stereo not shown)" value=13

---

experiment: Artificial membrane permeability (AMP); type: in vitro ADME; details: PAMPA, pH 7.4
Papp at 3 h strictly less than 40 ×10⁻⁶ cm/s = true. Otherwise false.

compound="COc1ccc(N2C(=O)c3[nH]nc(CC(C)C)c3C2c2ccc(C(=O)O)cc2)cc1 (centres unmarked) [Compound 50]" label_value=true
compound="COc1ccc(N2C(=O)c3[nH]nc(CC(C)C)c3C2c2ccccn2)cc1 (centres unmarked) [Compound S7]" label_value=false
compound="C=C(C)CCCc1n[nH]c2c1C(c1ccc(F)cc1)N(c1ccc(OC)cc1)C2=O (centres unmarked) [Compound 14]" label_value=true
compound="COc1ccc(N2C(=O)c3[nH]nc(CC(C)C)c3C2c2cc(F)nc(F)c2)cc1 (centres unmarked) [Compound S14]" label_value=false
compound="CC(C)Cc1n[nH]c2c1C(c1ccc(F)cc1)N(c1cccnc1)C2=O (centres unmarked) [Compound 32]" label_value=false
compound="COc1ccc(N2C(=O)c3[nH]nc(CC(C)C)c3C2c2ccc(F)cc2)c(OC)c1 (centres unmarked) [Compound 43]" label_value=true
compound="COc1ccc(N2C(=O)c3[nH]nc(CC(C)C)c3C2C2CCCCC2)cc1 (centres unmarked) [Compound 52]" label_value=true
compound="C=C(C)CCc1n[nH]c2c1C(c1ccc(F)cc1)N(c1ccc(OC)cc1)C2=O (centres unmarked) [Compound 13]" label_value=true
